Target: eIF1A without CTT (Homo sapiens, UniProt P47813)
Construct: His-bdSUMO (cleaved yes); made in house; host or cells: E. coli (BL-21)
Sequence (P47813 1-114 limits assumed): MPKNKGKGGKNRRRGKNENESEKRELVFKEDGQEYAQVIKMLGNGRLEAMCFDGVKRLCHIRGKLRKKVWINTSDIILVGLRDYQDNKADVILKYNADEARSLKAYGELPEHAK
Assay type: binding
Conditions: eIF1A Δ CTT; from the titration data; read-out: IC50 (eIF1A Δ CTT titration block)
Property: IC50; scope: individual compounds
MEASUREMENT NAME: IC50 (µM)

> print(dat)
                                   compound  measurement.name  assay.result
1  Cc1ccc(C(=O)c2cc(O)c(O)c([N+](=O)[O-])c2)cc1              IC50          5.38
2       Cc1cc(-n2c(C)cc(-c3csc(N)n3)c2C)no1              IC50          35.4
3  CN(C)CC1CCn2cc(c3ccccc32)C2=C(C(=O)NC2=O)c2cn(c3ccccc23)CCO1 (stereo not drawn)              IC50          12.4
4  COc1cccc(Nc2nc(-c3ccc(NC(C)=O)cc3)c(C)s2)c1              IC50          5.75
5  CCOc1cc(C(=O)Nc2ccc(Cl)c(-c3nc4ccccc4[nH]3)c2)cc(OCC)c1OCC              IC50          79.9
6  O=C(COc1ccccc1[N+](=O)[O-])NCc1ccc(-c2ccc(Br)cc2)o1              IC50          30.2
